System: Crabgrass (Digitaria sanguinalis)
Assay: Post-Emergent Test, herbicidal effectiveness
Assay type: in vivo
Conditions: post-emergence, 504 h, 33 micrograms per cm^2, 3 weeks, 0-to-100 scale, read-out: Herbicidal Effectiveness, % Control Post, C
Value type: pest or weed control at 5000 µg/mL, 33 µg/cm2 (%)

{"Molecule": "CSc1nnc(CN(C(=O)CCl)c2c(C)cccc2C)n1C [Compound 14B]", "Unit label": "%", "Recorded result": 0}
{"Molecule": "Cc1nnc(CN(C(=O)CCl)c2ccc(Cl)c(Cl)c2)[nH]1 [Compound 27B]", "Unit label": "%", "Recorded result": 0}
{"Molecule": "CSc1nnc(CNc2c(C)cccc2C)o1 [Compound 24A]", "Unit label": "%", "Recorded result": 0}
{"Molecule": "Cc1cccc(C)c1NCc1nnc[nH]1", "Unit label": "%", "Recorded result": 0}
{"Molecule": "Cc1cccc(C)c1N(CCc1nnc[nH]1)C(=O)CCl", "Unit label": "%", "Recorded result": 60}
{"Molecule": "CCc1cccc(C)c1N(Cc1nnc(C(C)C)[nH]1)C(=O)CCl [Compound 16B]", "Unit label": "%", "Recorded result": 70}
{"Molecule": "CCc1nnc(CN(C(=O)CCl)c2c(C)cccc2CC)[nH]1 [Compound 15B]", "Unit label": "%", "Recorded result": 75}
{"Molecule": "Cc1nnc(CNc2ccc(Cl)c(Cl)c2)[nH]1 [Compound 27A]", "Unit label": "%", "Recorded result": 0}
{"Molecule": "CCc1cccc(C)c1NCc1nnc(C)[nH]1", "Unit label": "%", "Recorded result": 0}
{"Molecule": "Cc1nnc(CN(C(=O)CCl)c2ccccc2C)[nH]1 [Compound 25B]", "Unit label": "%", "Recorded result": 0}
{"Molecule": "CSc1nnc(CNc2c(C)cccc2C)n1C [Compound 14A]", "Unit label": "%", "Recorded result": 0}
{"Molecule": "CCc1cccc(CC)c1NCc1nnc(SC)n1C [Compound 23A]", "Unit label": "%", "Recorded result": 0}
{"Molecule": "Cc1cccc(C)c1N(C(=O)CCl)C(C)c1nnc[nH]1 (stereo not shown) [Compound 12B]", "Unit label": "%", "Recorded result": 65}
{"Molecule": "CCc1cccc(C)c1N(Cc1nnc[nH]1)C(=O)CCl [Compound 17B]", "Unit label": "%", "Recorded result": 75}
{"Molecule": "CCc1cccc(CC)c1NCc1nnc(C)[nH]1", "Unit label": "%", "Recorded result": 0}
{"Molecule": "CCc1cccc(CC)c1NCc1nnc[nH]1 [Compound 20A]", "Unit label": "%", "Recorded result": 0}
{"Molecule": "Cc1cccc(C)c1NC(C)c1nnc[nH]1 (stereo not shown) [Compound 12A]", "Unit label": "%", "Recorded result": 0}
{"Molecule": "Cc1nnc(CNc2c(C)cccc2C)o1", "Unit label": "%", "Recorded result": 0}
{"Molecule": "Cc1cccc(C)c1N(Cc1nnc(S)[nH]1)C(=O)CCl [Compound 18B]", "Unit label": "%", "Recorded result": 0}

Values compiled from patent US4243408A.
